Provide the reported shrunken log2 fold change of each item.
- Tested on: Escherichia coli TOP10
- Procedure Summary: shrunken log2 fold change of peptide-encoding DNA abundance (4.5 h post-induction vs induction); higher = less antimicrobial activity (less host growth inhibition)
- Condition: time post-induction: 4.5 h; library: site-saturation at positions 5, 18, 19, 20

Simply: `RRIRWRPPRLPRPRPRPLGSPRP` , Escherichia coli TOP10, shrunken log2 fold change = -0.0308

Form field, shrunken log2 fold change with Escherichia coli TOP10, item `RRIRPRPPRLPRPRPRPDCVPRP` : -0.0187

The observed shrunken log2 fold change for `RRIRARPPRLPRPRPRPWAYPRP` when tested with Escherichia coli TOP10 stands at -0.0297

// sequence `RRIRKRPPRLPRPRPRPKSQPRP` , assay Escherichia coli TOP10, shrunken log2 fold change value: 0.109

`RRIRMRPPRLPRPRPRPQMWPRP` on Escherichia coli TOP10 gives shrunken log2 fold change = 0.635

Test item `RRIRVRPPRLPRPRPRPAQLPRP` ; Escherichia coli TOP10; reported shrunken log2 fold change was 0.0744

Tested system Escherichia coli TOP10; shrunken log2 fold change recorded for `RRIRKRPPRLPRPRPRPQDYPRP` was 0.118

Entry `RRIRRRPPRLPRPRPRPIKQPRP` : shrunken log2 fold change on Escherichia coli TOP10 = 0.197

====

Kindly state shrunken log2 fold change for each of the entries shown.
- Tested on: Escherichia coli TOP10
- Procedure Summary: shrunken log2 fold change of peptide-encoding DNA abundance (4.5 h post-induction vs induction); higher = less antimicrobial activity (less host growth inhibition)
- Condition: time post-induction: 4.5 h; library: site-saturation at positions 5, 18, 19, 20
Number only, please.

Form: sequence = `RRIRRRPPRLPRPRPRPCQKPRP` ; shrunken log2 fold change = 0.0185

Per the records, this sequence ( `RRIRIRPPRLPRPRPRPTMPPRP` ) has shrunken log2 fold change equal to -0.22

Query `RRIRARPPRLPRPRPRPKGQPRP` yields shrunken log2 fold change of 0.296

Measured shrunken log2 fold change of `RRIRCRPPRLPRPRPRPTSAPRP` : 0.18

Lab note: measured shrunken log2 fold change of `RRIRQRPPRLPRPRPRPLGTPRP` was 0.139

Notebook: `RRIRHRPPRLPRPRPRPHNLPRP` , shrunken log2 fold change read as 0.0201

So, `RRIRQRPPRLPRPRPRPRGGPRP` ? Its shrunken log2 fold change was 0.484

Documented shrunken log2 fold change of `RRIRGRPPRLPRPRPRPKKLPRP` : 0.39

====

- System: Escherichia coli TOP10
- Procedure Summary: shrunken log2 fold change of peptide-encoding DNA abundance (4.5 h post-induction vs induction); higher = less antimicrobial activity (less host growth inhibition)
- Condition: time post-induction: 4.5 h; library: site-saturation at positions 5, 18, 19, 20
Category key, based on recorded shrunken log2 fold change: Low = under -0.08, Mid = from -0.08 up to 0.1, High = 0.1 and over

Inquiry: Please let me know in which category the item `RRIRFRPPRLPRPRPRPTENPRP` belongs.
Reply text: Low

Inquiry: Classify this sequence: `RRIRDRPPRLPRPRPRPGFNPRP`
Reply text: High

Inquiry: # bin label for `RRIRCRPPRLPRPRPRPNPWPRP`
Reply text: Mid

Inquiry: Band for the recorded shrunken log2 fold change of `RRIRNRPPRLPRPRPRPSDPPRP` ?
Reply text: Low

Inquiry: Field: class (shrunken log2 fold change) — entry: `RRIRVRPPRLPRPRPRPGRTPRP`
Reply text: High

Inquiry: Which of the defined bands does the recorded shrunken log2 fold change of `RRIRRRPPRLPRPRPRPSQSPRP` sit within?
Reply text: High

Inquiry: Would you mind sorting `RRIRHRPPRLPRPRPRPHDAPRP` into the appropriate category?
Reply text: Low

Inquiry: Form: Item = `RRIRWRPPRLPRPRPRPEMVPRP` ; Class = ?
Reply text: Low

Inquiry: State the band of `RRIRNRPPRLPRPRPRPYYEPRP`
Reply text: Low

Inquiry: Exercise: read the entry `RRIRPRPPRLPRPRPRPLAWPRP` and state which class it falls under.
Reply text: High

Inquiry: Please report the category associated with `RRIRNRPPRLPRPRPRPRIRPRP` , nothing else.
Reply text: Mid

Inquiry: Category of `RRIRRRPPRLPRPRPRPATKPRP` :
Reply text: Mid

Inquiry: Into which category would you place `RRIRLRPPRLPRPRPRPVLCPRP` ?
Reply text: High

Inquiry: Would you mind sorting `RRIRERPPRLPRPRPRPMEQPRP` into the appropriate category?
Reply text: Low

Inquiry: Hey, which category is `RRIRRRPPRLPRPRPRPAIRPRP` in, do you know?
Reply text: Low

Inquiry: Determine which band this sequence sits in: `RRIRKRPPRLPRPRPRPPICPRP`
Reply text: High

Inquiry: Hi there! Could you help me figure out the category for `RRIRNRPPRLPRPRPRPFTVPRP` please?
Reply text: Mid

Inquiry: Field: class (shrunken log2 fold change) — entry: `RRIRVRPPRLPRPRPRPALWPRP`
Reply text: High

Inquiry: Any idea which band `RRIRMRPPRLPRPRPRPRWGPRP` is in?
Reply text: High

Inquiry: Class label required: `RRIRYRPPRLPRPRPRPELVPRP`
Reply text: High

Inquiry: Sort `RRIRIRPPRLPRPRPRPRFWPRP` into one of the categories.
Reply text: High

Inquiry: Kindly identify the class of `RRIRIRPPRLPRPRPRPHFPPRP` .
Reply text: Mid

Inquiry: Please classify: `RRIRYRPPRLPRPRPRPAFYPRP`
Reply text: Low

Inquiry: Which category fits this record: `RRIRWRPPRLPRPRPRPGVQPRP`
Reply text: High

Inquiry: Could you tell me which band `RRIRERPPRLPRPRPRPVHPPRP` belongs to?
Reply text: Mid

Inquiry: // return the class label for `RRIRDRPPRLPRPRPRPMSGPRP`
Reply text: Low

Inquiry: Textbook exercise: identify the category of the sequence given here, `RRIRSRPPRLPRPRPRPCWQPRP` , according to its measured value.
Reply text: Mid

Inquiry: Entry `RRIRRRPPRLPRPRPRPAKGPRP` belongs to which category?
Reply text: Mid

Inquiry: The entry to classify is `RRIRRRPPRLPRPRPRPPVAPRP` ; which class holds it?
Reply text: High

Inquiry: GET /class?item= `RRIRARPPRLPRPRPRPLCRPRP`
Reply text: High

Inquiry: Class label required: `RRIRYRPPRLPRPRPRPYLNPRP`
Reply text: Low

Inquiry: Kindly state the category for this sequence: `RRIRMRPPRLPRPRPRPVHEPRP`
Reply text: Low

====

For each entry below, report its shrunken log2 fold change value.
- Tested on: Escherichia coli TOP10
- Procedure Summary: shrunken log2 fold change of peptide-encoding DNA abundance (4.5 h post-induction vs induction); higher = less antimicrobial activity (less host growth inhibition)
- Condition: time post-induction: 4.5 h; library: site-saturation at positions 5, 18, 19, 20
Would you mind answering with just the numeric figure?

For `RRIRLRPPRLPRPRPRPVPKPRP` the sequence record lists shrunken log2 fold change as 0.282

For this sequence ( `RRIRTRPPRLPRPRPRPYHAPRP` ), measured shrunken log2 fold change is -0.236

Documented shrunken log2 fold change of `RRIRKRPPRLPRPRPRPCIGPRP` : 0.0382

The sequence identified as `RRIRIRPPRLPRPRPRPHRGPRP` registered its shrunken log2 fold change at -0.00841

So, `RRIRSRPPRLPRPRPRPNHEPRP` ? Its shrunken log2 fold change was -0.175

`RRIRGRPPRLPRPRPRPCTKPRP` yielded shrunken log2 fold change of 0.235

Entry under test: `RRIRHRPPRLPRPRPRPYAYPRP` . Its shrunken log2 fold change was -0.596

Item: `RRIRFRPPRLPRPRPRPNKIPRP` | shrunken log2 fold change: -0.538

====

- Tested on: Escherichia coli TOP10;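 also: peptides expressed intracellularly from a pBAD plasmid library in pooled LB shake-flask culture, induced with 0.3% L-arabinose, DNA abundance read by NGS, three biological replicates, DESeq2 with apeglm shrinkage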
- Procedure Summary: shrunken log2 fold change of peptide-encoding DNA abundance (4.5 h post-induction vs induction); higher = less antimicrobial activity (less host growth inhibition)
- Condition: time post-induction: 4.5 h; library: site-saturation at positions 5, 18, 19, 20
Give shrunken log2 fold change for every item shown.
When you answer, write just the number.

Response field shrunken log2 fold change (Escherichia coli TOP10) for item `RRIRPRPPRLPRPRPRPVGRPRP` : 0.0963

The sequence `RRIRYRPPRLPRPRPRPYETPRP` on Escherichia coli TOP10: shrunken log2 fold change was 0.112

The sequence `RRIRGRPPRLPRPRPRPFIWPRP` , tested on Escherichia coli TOP10, showed shrunken log2 fold change of 0.351

# lookup: `RRIRMRPPRLPRPRPRPLFMPRP` on Escherichia coli TOP10, shrunken log2 fold change = 0.0387

Hey, Escherichia coli TOP10 data for `RRIRSRPPRLPRPRPRPYQEPRP` : shrunken log2 fold change came out at -0.157

Test item `RRIRPRPPRLPRPRPRPRAPPRP` ; Escherichia coli TOP10; reported shrunken log2 fold change was 0.683

Let me check: `RRIRHRPPRLPRPRPRPVSVPRP` , system Escherichia coli TOP10, measured shrunken log2 fold change is -0.225

Per the reported Escherichia coli TOP10 data, `RRIRWRPPRLPRPRPRPQNHPRP` has shrunken log2 fold change of -0.585
